Recorded values, source patent US12018016B2.

- TARGET_ENTITY: human CCR6 (Homo sapiens, UniProt P51684)
- Sequence (P51684 1-374): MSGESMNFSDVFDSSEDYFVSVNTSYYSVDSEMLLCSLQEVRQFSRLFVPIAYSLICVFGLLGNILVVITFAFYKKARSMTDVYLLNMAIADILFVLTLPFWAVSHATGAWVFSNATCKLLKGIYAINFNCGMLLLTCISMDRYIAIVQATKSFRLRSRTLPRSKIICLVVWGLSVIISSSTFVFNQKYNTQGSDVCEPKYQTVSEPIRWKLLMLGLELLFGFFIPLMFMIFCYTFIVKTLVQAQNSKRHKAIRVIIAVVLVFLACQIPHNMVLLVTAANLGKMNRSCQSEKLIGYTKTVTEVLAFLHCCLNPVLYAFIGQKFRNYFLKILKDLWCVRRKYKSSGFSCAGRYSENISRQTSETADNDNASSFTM
- ASSAY_PROTOCOL: Migration assay (chemotaxis, ChemoTX)
- CONDITION_SUMMARY: hCCR6-transfected Ba/F3 cells in human serum, migration to recombinant human CCL20 10 nM, 37° C. 45 minutes; read-out: Potency (IC50 value in the migration assay)
MEASURED_QUANTITY: IC50

CNc1cc(-c2ccc(S(=O)(=O)N3CC[C@@H](Nc4ccc(C(F)(F)F)cn4)[C@@H](O)C3)cc2)ccn1 1 to 10 nM
O=S(=O)(c1ccc(-c2cccnc2)cc1)N1CC[C@@H](Nc2ccc(C(F)(F)F)cn2)[C@@H](O)C1 < 1 nM
COC1CN(c2cc(-c3ccc(S(=O)(=O)N4CC[C@@H](Nc5ccc(C(F)(F)F)cn5)[C@@H](O)C4)cc3)ccn2)C1 1 to 10 nM

May I ask what IC50 has been recorded for `Cn1ccnc1-c1cc(-c2ccc(S(=O)(=O)N3CC[C@@H](Nc4ccc(C(F)(F)F)cn4)[C@@H](O)C3)cc2)ccn1` ? 10 to 1000 nM

Proceed to `Cc1nnc(-c2cc(-c3ccc(S(=O)(=O)N4CC[C@@H](Nc5ccc(C(F)(F)F)cn5)[C@@H](O)C4)cc3)c(C)cn2)o1` < 1 nM

Proceed to `O=C1NCc2ncc(-c3ccc(S(=O)(=O)N4CC[C@@H](Nc5ccc(C(F)(F)F)cn5)[C@@H](O)C4)cc3)cc21` < 1 nM

Proceed to `O=S(=O)(c1ccc(-c2ccc(N3CCCC3)nc2)cc1)N1CC[C@@H](Nc2ccc(C(F)(F)F)cn2)[C@@H](O)C1` < 1 nM

Proceed to `O=C1NCC[C@@H]1Nc1ccc(-c2ccc(S(=O)(=O)N3CC[C@@H](Nc4ccc(C(F)(F)F)cn4)[C@@H](O)C3)cc2)cn1` < 1 nM

Proceed to `O=S(=O)(c1ccc(-c2ccc(N3CCC3)nc2)cc1)N1CC[C@@H](Nc2ccc(C(F)(F)F)cn2)[C@@H](O)C1` < 1 nM

Proceed to `O=S(=O)(c1ccc(-c2ccc(N3CC4(CNC4)C3)nc2)cc1)N1CC[C@@H](Nc2ccc(C(F)(F)F)cn2)[C@@H](O)C1` < 1 nM

Proceed to `CN1CC(N(C)c2ccc(-c3ccc(S(=O)(=O)N4CC[C@@H](Nc5ccc(C(F)(F)F)cn5)[C@@H](O)C4)cc3)cn2)C1` 1 to 10 nM

Proceed to `CC(C)(C)OC(=O)NCCn1cc(C#N)c2cc(-c3ccc(S(=O)(=O)N4CC[C@@H](Nc5ccc(C(F)(F)F)cn5)[C@@H](O)C4)cc3)cnc21` < 1 nM

Proceed to `Cc1c(-c2ccc(S(=O)(=O)N3CC[C@@H](Nc4ccc(C(F)(F)F)cn4)[C@@H](O)C3)cc2)ccc2[nH]nc(C#N)c12` < 1 nM

---

- TARGET_ENTITY: human CCR6 (Homo sapiens)
- ASSAY_PROTOCOL: Migration assay (chemotaxis, ChemoTX)
- CONDITION_SUMMARY: hCCR6-transfected Ba/F3 cells in human serum, migration to recombinant human CCL20 10 nM, 37° C. 45 minutes; read-out: Potency (IC50 value in the migration assay)
pIC50: −log10 of the molar value.
MEASURED_QUANTITY: pIC50

Cc1nc2[nH]cc(C#N)c2c(C)c1-c1ccc(S(=O)(=O)N2CC[C@@H](Nc3ccc(C(F)(F)F)cn3)[C@@H](O)C2)cc1 > 9.00
COc1cnc(C)cc1-c1ccc(S(=O)(=O)N2CC[C@@H](Nc3ccc(C(F)(F)F)cn3)[C@@H](O)C2)cc1 > 9.00
CN(C)[C@H]1C[C@H](Nc2ccc(-c3ccc(S(=O)(=O)N4CC[C@@H](Nc5ccc(C(F)(F)F)cn5)[C@@H](O)C4)cc3)cn2)C1 8.00 to 9.00
COc1cc(-c2ccc(S(=O)(=O)N3CC[C@@H](Nc4ccc(C(F)(F)F)cn4)[C@@H](O)C3)cc2)cc2cn[nH]c(=O)c12 > 9.00
O=S(=O)(c1ccc(-c2ccnc(N3CC[C@@H](O)C3)c2)cc1)N1CC[C@@H](Nc2ccc(C(F)(F)F)cn2)[C@@H](O)C1 > 9.00

Now look at this entry.
May I ask what pIC50 has been recorded for `Cc1nc2[nH]ccc2cc1-c1ccc(S(=O)(=O)N2CC[C@@H](Nc3ccc(C(F)(F)F)cn3)[C@@H](O)C2)cc1` ? 8.00 to 9.00

---

- TARGET_ENTITY: human CCR6 (Homo sapiens, UniProt P51684)
- Sequence (P51684 1-374): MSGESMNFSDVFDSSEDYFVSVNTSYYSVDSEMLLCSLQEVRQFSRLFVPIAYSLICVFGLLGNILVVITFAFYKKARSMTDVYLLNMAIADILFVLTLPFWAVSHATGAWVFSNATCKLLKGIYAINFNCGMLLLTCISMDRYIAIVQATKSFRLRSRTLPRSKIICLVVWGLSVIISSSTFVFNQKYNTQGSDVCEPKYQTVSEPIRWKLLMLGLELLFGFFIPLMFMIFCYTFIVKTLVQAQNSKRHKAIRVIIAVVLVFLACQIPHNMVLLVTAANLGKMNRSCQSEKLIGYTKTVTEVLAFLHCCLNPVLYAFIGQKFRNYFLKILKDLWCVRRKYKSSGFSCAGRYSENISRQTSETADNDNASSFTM
- ASSAY_PROTOCOL: Migration assay (chemotaxis, ChemoTX)
- CONDITION_SUMMARY: hCCR6-transfected Ba/F3 cells in human serum, migration to recombinant human CCL20 10 nM, 37° C. 45 minutes; read-out: Potency (IC50 value in the migration assay)
pIC50: −log10 of the molar value.
MEASURED_QUANTITY: pIC50

NS(=O)(=O)c1cc(-c2ccc(S(=O)(=O)N3CC[C@@H](Nc4ccc(C(F)(F)F)cn4)[C@@H](O)C3)cc2)ccn1 > 9.00

May I ask what pIC50 has been recorded for `O=C1NCc2cc(-c3ccc(S(=O)(=O)N4CC[C@@H](Nc5ccc(C(F)(F)F)cn5)[C@@H](O)C4)cc3)ccc2N1` ? > 9.00

Proceed to `O=S(=O)(c1ccc(-c2cnc3c(O)nccc3c2)cc1)N1CC[C@@H](Nc2ccc(C(F)(F)F)cn2)[C@@H](O)C1` > 9.00

---

- TARGET_ENTITY: human CCR6 (Homo sapiens, UniProt P51684)
- ASSAY_PROTOCOL: Migration assay (chemotaxis, ChemoTX)
- CONDITION_SUMMARY: hCCR6-transfected Ba/F3 cells in human serum, migration to recombinant human CCL20 10 nM, 37° C. 45 minutes; read-out: Potency (IC50 value in the migration assay)
pIC50: −log10 of the molar value.
MEASURED_QUANTITY: pIC50

Reference set, count: 10
CN(C)C(=O)N1Cc2ccc(-c3ccc(S(=O)(=O)N4CC[C@@H](Nc5ccc(C(F)(F)F)cn5)[C@@H](O)C4)cc3)cc2C1 > 9.00
O=S(=O)(c1ccc(-c2nnc(N3CCOCC3)o2)cc1)N1CC[C@@H](Nc2ccc(C(F)(F)F)cn2)[C@@H](O)C1 6.00 to 8.00
Nc1nnc2ccc(-c3ccc(S(=O)(=O)N4CC[C@@H](Nc5ccc(C(F)(F)F)cn5)[C@@H](O)C4)cc3)cn12 > 9.00
N#Cc1c[nH]c2ncc(-c3ccc(S(=O)(=O)N4CC[C@@H](Nc5ccc(C(F)(F)F)cn5)[C@@H](O)C4)cc3)cc12 > 9.00
O=S(=O)(c1ccc(-c2ccc(N3CC[C@H](O)C3)nc2)cc1)N1CC[C@@H](Nc2ccc(C(F)(F)F)cn2)[C@@H](O)C1 > 9.00
Cc1cc(-c2ccc(S(=O)(=O)N3CC[C@@H](Nc4ccc(C(F)(F)F)cn4)[C@@H](O)C3)cc2)cc2cnn(C)c12 > 9.00
O=S(=O)(c1ccc(-c2ccncc2)cc1)N1CC[C@@H](Nc2ccc(C(F)(F)F)cn2)[C@@H](O)C1 > 9.00
COc1ccc(-c2ccc(S(=O)(=O)N3CC[C@@H](Nc4ccc(C(F)(F)F)cn4)[C@@H](O)C3)cc2)cn1 8.00 to 9.00
COc1nccc(-c2ccc(S(=O)(=O)N3CC[C@@H](Nc4ccc(C(F)(F)F)cn4)[C@@H](O)C3)cc2)c1OC > 9.00
Cc1c(-c2ccc(S(=O)(=O)N3CC[C@@H](Nc4ccc(C(F)(F)F)cn4)[C@@H](O)C3)cc2)cnc(N)c1C > 9.00

Request body: readout pIC50, system human CCR6 (Homo sapiens, UniProt P51684), query `CN(c1ccc(-c2ccc(S(=O)(=O)N3CC[C@@H](Nc4ccc(C(F)(F)F)cn4)[C@@H](O)C3)cc2)cn1)C1CCC1` . Return the value. 8.00 to 9.00

Proceed to `Cc1c(-c2ccc(S(=O)(=O)N3CC[C@@H](Nc4ccc(C(F)(F)F)cn4)[C@@H](O)C3)cc2)ccnc1N` > 9.00

Proceed to `Cc1cc(-c2ccc(S(=O)(=O)N3CC[C@@H](Nc4ccc(C(F)(F)F)cn4)[C@@H](O)C3)cc2)cc2cn[nH]c12` > 9.00
